assay: protein stability index of a GFP-peptide fusion (yeast GPS) (PSI 1-4); higher = more stable; sorted into four equal gates, so the index is relative within each strain; details: ubr1∆
Decision: protein stability index compared against 3; not below it gives 1, below it gives -1.

// below: answered sequences
item_sequence: RVLQLLAVIMDNIGEID [YCG1]
label_value: -1
//
item_sequence: RGVRPYKHIDASGSINR [RPS19A]
label_value: 1

hey, is protein stability index for this one >= 3? SYSPTSPSYSPTSPAYS [RPO21]
1

Now consider GRYAGKKVVIVKPHDEG [RPL27A] and answer again.
-1

Now consider SLTKDKSIRKDTVEEKK [SIR4] and answer again.
1

Now consider QLNGNETFSTSAHQSPI [SNF2] and answer again.
1
